Tested on: A549 NSCLC
Assay: NCI tumour cell line growth inhibition, 48 h
observed.property: TGI (µM)
Number in µM, nothing else.

compound	TGI / µM
O=C1C=C(Nc2ccccc2)c2ccccc2C1=O	4.06
CSC(=S)CC(O)[C@@H]1CC2c3ccccc3C1c1ccccc12 (stereo not given in full)	34.4
Cc1c2cnccc2c(C)c2c1c1ccccc1n2CCOC(=O)c1ccccc1	43.1

Note: attention shifts to another entry.
If you can, please state the reported TGI value of `COc1cc2c(c3oc(-c4ccc(O)cc4)c(O)c(=O)c13)CCC(C)(C)O2` .
0.729

----------
Test system: SW-620 colon
Assay: NCI tumour cell line growth inhibition, 48 h
observed.property: TGI

Solved entries:
compound	TGI
Cn1cc(-c2ccc3nc(-c4ccc(CC(=O)Nc5cc(C(C)(C)C)no5)cc4)cnc3c2)cn1	> 3 µM
CCC(=C(c1ccc(OCCN2CCCCC2)cc1)c1ccc(OCCN2CCCCC2)cc1)c1ccc(Cl)cc1	> 16.7 µM
O=C(CNc1ccccc1[N+](=O)[O-])Nn1cnc2ccc(S(=O)(=O)Nc3ccccc3[N+](=O)[O-])cc2c1=O	> 100 µM
COc1ccc2c(-c3csc(-c4c[nH]c5ccc(Br)cc45)n3)c[nH]c2c1	> 100 µM
N#CC1=C(N)Oc2c(sc3c(Br)cccc23)C1c1ccc([N+](=O)[O-])cc1 (centres undefined)	14.5 µM
O=C(O)/C=C\C(=O)Nc1ccc2c(c1)-c1ccccc1C2	> 100 µM

// lookup TGI | system=SW-620 colon | key= CC(=O)OCC1C(=O)OCC1C(=O)N1Cc2cc3ccccc3nc2C1 (centres undefined)
1.68 µM

// lookup TGI | system=SW-620 colon | key= O=C1C2C3C4C1C1C2[C@H](OCc2ccccc2)C3C1[C@H]4OCc1ccccc1 (some centres undefined)
> 100 µM

// lookup TGI | system=SW-620 colon | key= COC(=O)C(=O)C(C(=O)C(=O)Nc1ccc(Cl)c(Cl)c1)c1nc2ccc(C(=O)c3ccccc3)cc2[nH]c1=O (centres undefined)
> 100 µM

// lookup TGI | system=SW-620 colon | key= `N#CCCNc1nonc1-c1nc2ccccc2n1CC(=O)c1ccc(N)cc1`
> 100 µM

// lookup TGI | system=SW-620 colon | key= CCCCCCCCCCCCCCCCOCC(COP(=O)(O)OCC1OC(n2cc(CC)c(=O)[nH]c2=O)CC1O)OC(=O)CCCCCCCCCCCCCCC (centres undefined)
> 100 µM
